- TARGET: OsWOX13 (Oryza sativa, UniProt Q5QMM3 1-267)
- Sequence: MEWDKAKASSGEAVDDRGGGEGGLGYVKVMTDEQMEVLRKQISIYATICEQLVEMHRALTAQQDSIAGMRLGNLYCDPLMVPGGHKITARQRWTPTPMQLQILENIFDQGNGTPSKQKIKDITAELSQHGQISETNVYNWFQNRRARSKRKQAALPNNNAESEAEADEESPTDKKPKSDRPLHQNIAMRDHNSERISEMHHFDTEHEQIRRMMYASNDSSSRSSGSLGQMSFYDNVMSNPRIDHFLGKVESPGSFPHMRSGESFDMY
- EXPERIMENTAL DETAILS: protein-binding microarray (RPBM); PBS, 2% BSA, 51.3 ng/ul salmon testes DNA, 50 uM zinc acetate, 200 nM TF, 25 C, 1 h; high values mean tight binding
- CONDITION INFO: protein: recombinant; tags: N-terminal polyhistidine and DsRed monomer fusion (pET32a); label: CyDye5-dUTP incorporated in the synthesized complementary strand; 3' TTTTT single-stranded linker to array surface; dsDNA, one strand shown
The full ranking holds about 35,000 sequences; the median of “fluorescence intensity (a.u.)” is about 10,000, and the highest 2% start at about 52,000. The entries come from a sample that favours the highest values as a whole.
MEASURE: binding signal

> print(dat)
                           monomer.sequence                                    target                       recorded.value
1  TACCTTAATTTATTGATTGCACTCTTGTTCTCACACGGTTCGGAGTCACCTAGTGCAG  OsWOX13 (Oryza sativa, UniProt Q5QMM3 1-267)  53200 fluorescence intensity (a.u.)
2  CGTTTAATTGTGTATATATATAGCCACATTAAAGTACACACGGAGTCACCTAGTGCAG  OsWOX13 (Oryza sativa, UniProt Q5QMM3 1-267)  11100 fluorescence intensity (a.u.)

### Prompt Would you kindly share the measured binding signal for "TGGAATTGATTATGATGCTGTTTCCTTCATGGGAGCTCTACGGAGTCACCTAGTGCAG" ?
### Response 31900 fluorescence intensity (a.u.)

----------
- TARGET: OsWOX13 (Oryza sativa, UniProt Q5QMM3 1-267)
- Sequence: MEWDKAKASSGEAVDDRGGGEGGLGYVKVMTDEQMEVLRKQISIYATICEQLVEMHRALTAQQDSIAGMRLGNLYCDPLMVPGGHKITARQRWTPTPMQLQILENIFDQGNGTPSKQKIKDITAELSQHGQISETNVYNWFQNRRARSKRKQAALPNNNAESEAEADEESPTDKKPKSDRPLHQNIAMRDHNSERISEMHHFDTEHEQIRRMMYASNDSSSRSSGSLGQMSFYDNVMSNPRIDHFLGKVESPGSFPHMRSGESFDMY
- EXPERIMENTAL DETAILS: protein-binding microarray (RPBM); PBS, 2% BSA, 51.3 ng/ul salmon testes DNA, 50 uM zinc acetate, 200 nM TF, 25 C, 1 h; high values mean tight binding
- CONDITION INFO: protein: recombinant; tags: N-terminal polyhistidine and DsRed monomer fusion (pET32a); label: CyDye5-dUTP incorporated in the synthesized complementary strand; 3' TTTTT single-stranded linker to array surface; dsDNA, one strand shown
Whole data set: some 35,000 sequences, median “fluorescence intensity (a.u.)” near 10,000, cut for the highest 2% near 52,000. The sample holds the highest values, similar sequences and a random draw of the others, so the mix is not that of the screen.
MEASURE: binding signal

Known results for sequences:
> print(dat)
                           monomer.sequence                       recorded.value
1  TAATAATTATAATTAATTACCGGAGTTACTTATTCTAAACCGGAGTCACCTAGTGCAG  60400 fluorescence intensity (a.u.)
2  TTAAATTTATACCCCACTTATATCTCACTTACACATCACTCGGAGTCACCTAGTGCAG   7930 fluorescence intensity (a.u.)
3  CTTGATTTATTATTTACCATGTTAGAAATGTTTATTTATACGGAGTCACCTAGTGCAG  29600 fluorescence intensity (a.u.)
4  GTTAACTAATTAGGGCGTATGAACAAGTCATCGTGGCAGTCGGAGTCACCTAGTGCAG  23000 fluorescence intensity (a.u.)
5  GGATAGAATTGATTGAGCGAGAGAGAGAATTGAACACAAACGGAGTCACCTAGTGCAG  21200 fluorescence intensity (a.u.)

### Prompt Form: Entry = "CTTATTATAAAGATTTAATTATAACAAATATAATGGTATGCGGAGTCACCTAGTGCAG" | System = OsWOX13 (Oryza sativa, UniProt Q5QMM3 1-267) | binding signal = ____
### Response 4800 fluorescence intensity (a.u.)

### Prompt What reported binding signal corresponds to "TATGGTTAATTATGTATTTATCGACAACGGGATGTTCGTACGGAGTCACCTAGTGCAG" on OsWOX13 (Oryza sativa, UniProt Q5QMM3 1-267)?
### Response 15000 fluorescence intensity (a.u.)

### Prompt Request: binding signal, test system OsWOX13 (Oryza sativa, UniProt Q5QMM3 1-267), entry "GAAATTGATTTATCCAGGGAAACTGTCGTGACAAATTTCGCGGAGTCACCTAGTGCAG"
### Response 49300 fluorescence intensity (a.u.)

### Prompt Given the entry "CATGACATCGTCATTGACCGTGTCATCGTCAAGATGGATGCGGAGTCACCTAGTGCAG" , what binding signal was observed with OsWOX13 (Oryza sativa, UniProt Q5QMM3 1-267)?
### Response 4420 fluorescence intensity (a.u.)

### Prompt Kindly state the measured binding signal obtained for "GCGGATTGGTTGCCTGACCCTCCTCCTCCTCCTCCTCCTCCGGAGTCACCTAGTGCAG" with OsWOX13 (Oryza sativa, UniProt Q5QMM3 1-267).
### Response 8490 fluorescence intensity (a.u.)

### Prompt Test system OsWOX13 (Oryza sativa, UniProt Q5QMM3 1-267); read-out binding signal; what value for "GCCGGTGATTGGCGTGGCGTGGCGTGGCGTGGCGCGGTGTCGGAGTCACCTAGTGCAG" ?
### Response 52600 fluorescence intensity (a.u.)

### Prompt Tell me reported binding signal for "AACATTGATTAATATTGGTCAAAATATTTTCAACTCTAAACGGAGTCACCTAGTGCAG" , tested with OsWOX13 (Oryza sativa, UniProt Q5QMM3 1-267).
### Response 19200 fluorescence intensity (a.u.)

### Prompt Can you look up binding signal on OsWOX13 (Oryza sativa, UniProt Q5QMM3 1-267) for "CTGATTGATTCGTAATAGTAGAATAGGACATGTTACCATACGGAGTCACCTAGTGCAG" ?
### Response 64500 fluorescence intensity (a.u.)

### Prompt binding signal of "TTTGAGTGATTGACAGGAAACAAATCCACCACTATCTGTTCGGAGTCACCTAGTGCAG" on OsWOX13 (Oryza sativa, UniProt Q5QMM3 1-267)?
### Response 62400 fluorescence intensity (a.u.)
